System: MS2 coat protein
Assay: apparent KD of MS2 coat protein; designed switch direction (-1 OFF switch, 1 ON switch): 1; higher = weaker reporter binding
Conditions: Eterna round: R95; input ligand: microRNA oligo, concentration not stated
Label condition not met if apparent KD of MS2 coat protein falls below 100 nM; label condition met in every other case.

| sequence_content | class_name |
| --- | --- |
| GGUCCAGCCUGAGCUGGACAAAAGCAUGUACAUGAGGAUCACCCAUGUCAUGUAUAAGCUUUUUGCUCGUCUUAAAA [JL mod - D87 - 11] (puzzle: Sensor for hsa-mir-208a) | condition not met |
| AGUUGUGGGAAACUAUAGCAGACGCUCGUACAUGAGGAUCACCCAUGUCUUGUAGGAGCUGUUUGCUCGUUUUAUGG [ak 1 mod of one Eli's designs.] (puzzle: Sensor for hsa-mir-208a) | condition not met |
| GUAAAACAUGAGGAUCACCCAUGUCAACAAAGUCGAGGAUAUGGGCAAAUAAAAUAAGAACCAGAAGGCGAAUAAG [salish99_SS1_r3_009] (puzzle: Same State 1) | condition met |
| AUUAUACAUGAGGAUCACCCAUGUCAACAAAGUCGAGGAUAUGGGCAAAUAAAAUAAGAACCAGAAGGCGAAUAAU [salish99_ss1_r3_069] (puzzle: Same State 1) | condition met |
| CGGCGCUGUCGAGAGGAUAUGCGGUGAUGGACAUGAGGAUCACCCAUGUUAGCGAUAGCAUCACGGUAGAAGGCUCUUACGCCUG [Soteed Omei mod 23] (puzzle: Same State 2) | condition met |
| GCAGGACAUGAGGAUCACCCAUGUUCAAAAUAUAGAGGAUAUGGAUACGGUAUAUCCGAACCAGAAGGCUACCUGC [SS1 Teenbexe 23] (puzzle: Same State 1) | condition not met |
| UAUGAACAUGAGGAUCACCCAUGUGGAAAGGACACAGGAUAUCAUCUCGCACGUGCGAUAUGAGAAGGGUGAUGGU [Quedorinri] (puzzle: Same State 1) | condition not met |
| CUAAAACAUGAGGAUCACCCAUGUCAACAAAGUCGAGGAUAUGGGCAAAUAAAAUAAGAACCAGAAGGCGAAUAAC [salish99_SS1_r3_014] (puzzle: Same State 1) | condition met |

Ref: the supplement of paper PMC9170038
